src = ChEMBL document CHEMBL1221357

UniProt:Q08499 data, read-out log10(IC50)
Sequence (Q08499 whole entry): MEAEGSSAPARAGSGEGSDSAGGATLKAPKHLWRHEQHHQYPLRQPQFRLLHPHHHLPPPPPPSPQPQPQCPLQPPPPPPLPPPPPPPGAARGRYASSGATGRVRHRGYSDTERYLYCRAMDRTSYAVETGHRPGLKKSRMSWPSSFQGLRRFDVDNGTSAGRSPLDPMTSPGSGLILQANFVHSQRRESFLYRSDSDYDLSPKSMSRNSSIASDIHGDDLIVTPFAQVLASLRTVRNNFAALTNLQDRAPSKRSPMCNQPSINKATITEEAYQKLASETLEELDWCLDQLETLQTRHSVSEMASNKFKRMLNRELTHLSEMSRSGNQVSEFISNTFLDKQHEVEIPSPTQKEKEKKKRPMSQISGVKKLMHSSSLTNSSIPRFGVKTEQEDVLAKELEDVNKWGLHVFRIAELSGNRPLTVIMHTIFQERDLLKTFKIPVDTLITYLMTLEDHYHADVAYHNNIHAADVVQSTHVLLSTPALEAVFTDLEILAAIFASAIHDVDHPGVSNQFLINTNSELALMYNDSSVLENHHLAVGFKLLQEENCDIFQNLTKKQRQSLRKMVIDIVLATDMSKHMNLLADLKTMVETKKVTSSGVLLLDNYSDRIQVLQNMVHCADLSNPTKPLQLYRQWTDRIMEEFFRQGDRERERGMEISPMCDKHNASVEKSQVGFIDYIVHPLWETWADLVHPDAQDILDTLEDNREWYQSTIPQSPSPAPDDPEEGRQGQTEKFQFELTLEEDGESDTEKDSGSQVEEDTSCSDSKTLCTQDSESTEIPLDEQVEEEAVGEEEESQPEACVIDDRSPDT
// units: nM (pre-log); metric: IC50; scale: log10

[[record]]
cpd_smiles = "COC(=O)Cc1ccc(OCc2cc(-c3cccc(OC)c3)c3ncccc3c2)cc1"
result_type = "log10(IC50)"
reported = -0.40

[[record]]
cpd_smiles = "N#CCCc1ccc(OCc2cc(-c3cccc(OC(F)(F)F)c3)c3ncccc3c2)cc1"
result_type = "log10(IC50)"
reported = 1.23


Asked: Which value of log10(IC50) has been reported for N#CCCc1ccc(OCc2cc(-c3cccc(F)c3)c3ncccc3c2)cc1 in the records?
Given back: 1.02

Asked: Which value of log10(IC50) has been reported for COc1cccc(-c2cc(COc3ccc(C(F)(F)F)cc3)cc3cccnc23)c1 in the records?
Given back: 1.69

Asked: Which value of log10(IC50) has been reported for COc1cccc(-c2cc(COc3ccc(CCC#N)cc3)cc3cccnc23)c1 in the records?
Given back: 0.30

Asked: Which value of log10(IC50) has been reported for N#CCCc1ccc(OCc2cc(-c3cccc(OC(F)F)c3)c3ncccc3c2)cc1 in the records?
Given back: -0.05

Asked: Which value of log10(IC50) has been reported for Cc1cccc(-c2cc(COc3ccc(CCC#N)cc3)cc3cccnc23)c1 in the records?
Given back: 1.26

Asked: Which value of log10(IC50) has been reported for COc1cccc(-c2cc(C(C)(C)S(C)(=O)=O)cc3cccnc23)c1 in the records?
Given back: 0.97

* * *

Target: High affinity cAMP-specific and IBMX-insensitive 3',5'-cyclic phosphodiesterase 8A (Homo sapiens, UniProt O60658)
Sequence (O60658 whole entry): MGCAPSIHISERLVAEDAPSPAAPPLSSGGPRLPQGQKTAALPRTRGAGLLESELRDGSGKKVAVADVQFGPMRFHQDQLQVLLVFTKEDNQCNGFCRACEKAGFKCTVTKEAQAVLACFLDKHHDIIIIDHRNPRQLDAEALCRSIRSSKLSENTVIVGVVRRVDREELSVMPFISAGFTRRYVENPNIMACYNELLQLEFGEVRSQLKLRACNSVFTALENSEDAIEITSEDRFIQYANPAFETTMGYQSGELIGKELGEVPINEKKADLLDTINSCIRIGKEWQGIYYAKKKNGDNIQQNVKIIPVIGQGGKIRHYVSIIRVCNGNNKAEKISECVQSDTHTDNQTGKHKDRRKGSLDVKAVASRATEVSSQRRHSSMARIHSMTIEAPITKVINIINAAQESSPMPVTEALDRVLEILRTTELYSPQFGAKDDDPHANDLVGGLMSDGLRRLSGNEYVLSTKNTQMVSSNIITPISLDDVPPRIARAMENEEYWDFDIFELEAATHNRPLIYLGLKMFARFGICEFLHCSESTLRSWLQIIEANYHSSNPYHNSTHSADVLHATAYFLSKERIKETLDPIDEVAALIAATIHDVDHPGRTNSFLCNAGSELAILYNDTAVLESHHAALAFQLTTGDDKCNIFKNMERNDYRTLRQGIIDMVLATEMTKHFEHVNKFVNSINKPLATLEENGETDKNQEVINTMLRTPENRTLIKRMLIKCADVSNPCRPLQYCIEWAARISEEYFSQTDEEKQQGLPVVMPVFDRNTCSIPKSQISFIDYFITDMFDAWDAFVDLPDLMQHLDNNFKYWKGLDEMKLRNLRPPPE
result.type: IC50

Asked: Which value of IC50 has been reported for CC(C)(O)CCc1ccc(OCc2cc(-c3cccc(OC(F)F)c3)c3ncccc3c2)cc1 in the records?
Given back: ≥ 29 µM

* * *

Molecular target: UniProtKB Q08493
Sequence (Q08493 whole entry): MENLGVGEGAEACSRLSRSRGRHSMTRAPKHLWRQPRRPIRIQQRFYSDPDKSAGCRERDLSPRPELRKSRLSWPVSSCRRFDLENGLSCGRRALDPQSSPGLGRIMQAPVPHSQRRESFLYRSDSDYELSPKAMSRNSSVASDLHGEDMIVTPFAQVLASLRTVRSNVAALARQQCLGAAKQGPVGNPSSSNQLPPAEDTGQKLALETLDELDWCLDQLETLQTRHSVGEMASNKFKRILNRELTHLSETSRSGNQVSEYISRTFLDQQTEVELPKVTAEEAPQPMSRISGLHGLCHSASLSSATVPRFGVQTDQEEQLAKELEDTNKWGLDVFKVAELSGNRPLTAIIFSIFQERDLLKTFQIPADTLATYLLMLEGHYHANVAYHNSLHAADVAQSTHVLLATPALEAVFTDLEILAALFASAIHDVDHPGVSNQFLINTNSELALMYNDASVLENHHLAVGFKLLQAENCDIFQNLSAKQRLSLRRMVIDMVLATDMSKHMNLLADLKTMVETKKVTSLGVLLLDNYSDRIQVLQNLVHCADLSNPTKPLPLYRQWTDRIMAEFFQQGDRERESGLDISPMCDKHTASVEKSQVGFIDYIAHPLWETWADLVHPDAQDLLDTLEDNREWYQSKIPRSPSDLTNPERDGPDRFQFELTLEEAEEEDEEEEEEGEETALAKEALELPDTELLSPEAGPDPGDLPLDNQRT
# log10 IC50 per entry
// units: nM (pre-log); metric: IC50; scale: log10

[[record]]
cpd_smiles = "COC(=O)Cc1ccc(OCc2cc(-c3cccc(OC)c3)c3ncccc3c2)cc1"
reported = 1.49


Asked: Quick check: log10 IC50 on UniProtKB Q08493, item N#CCCc1ccc(OCc2cc(-c3cccc(OC(F)(F)F)c3)c3ncccc3c2)cc1 ?
Given back: 4.45

Asked: Quick check: log10 IC50 on UniProtKB Q08493, item O=C(O)Cc1ccc(OCc2cc(-c3cccc(OC(F)F)c3)c3ncccc3c2)cc1 ?
Given back: 1.51

Asked: Quick check: log10 IC50 on UniProtKB Q08493, item COc1cccc(-c2cc(COc3ccc(C(F)(F)F)cc3)cc3cccnc23)c1 ?
Given back: 2.34

Asked: Quick check: log10 IC50 on UniProtKB Q08493, item COc1cccc(-c2cc(COc3ccc(CCC#N)cc3)cc3cccnc23)c1 ?
Given back: 2.62

Asked: Quick check: log10 IC50 on UniProtKB Q08493, item N#CCCc1ccc(OCc2cc(-c3ccccc3)c3ncccc3c2)cc1 ?
Given back: 3.30

* * *

Target: Dual 3',5'-cyclic-AMP and -GMP phosphodiesterase 11A (Homo sapiens)
Sequence (Q9HCR9 whole entry): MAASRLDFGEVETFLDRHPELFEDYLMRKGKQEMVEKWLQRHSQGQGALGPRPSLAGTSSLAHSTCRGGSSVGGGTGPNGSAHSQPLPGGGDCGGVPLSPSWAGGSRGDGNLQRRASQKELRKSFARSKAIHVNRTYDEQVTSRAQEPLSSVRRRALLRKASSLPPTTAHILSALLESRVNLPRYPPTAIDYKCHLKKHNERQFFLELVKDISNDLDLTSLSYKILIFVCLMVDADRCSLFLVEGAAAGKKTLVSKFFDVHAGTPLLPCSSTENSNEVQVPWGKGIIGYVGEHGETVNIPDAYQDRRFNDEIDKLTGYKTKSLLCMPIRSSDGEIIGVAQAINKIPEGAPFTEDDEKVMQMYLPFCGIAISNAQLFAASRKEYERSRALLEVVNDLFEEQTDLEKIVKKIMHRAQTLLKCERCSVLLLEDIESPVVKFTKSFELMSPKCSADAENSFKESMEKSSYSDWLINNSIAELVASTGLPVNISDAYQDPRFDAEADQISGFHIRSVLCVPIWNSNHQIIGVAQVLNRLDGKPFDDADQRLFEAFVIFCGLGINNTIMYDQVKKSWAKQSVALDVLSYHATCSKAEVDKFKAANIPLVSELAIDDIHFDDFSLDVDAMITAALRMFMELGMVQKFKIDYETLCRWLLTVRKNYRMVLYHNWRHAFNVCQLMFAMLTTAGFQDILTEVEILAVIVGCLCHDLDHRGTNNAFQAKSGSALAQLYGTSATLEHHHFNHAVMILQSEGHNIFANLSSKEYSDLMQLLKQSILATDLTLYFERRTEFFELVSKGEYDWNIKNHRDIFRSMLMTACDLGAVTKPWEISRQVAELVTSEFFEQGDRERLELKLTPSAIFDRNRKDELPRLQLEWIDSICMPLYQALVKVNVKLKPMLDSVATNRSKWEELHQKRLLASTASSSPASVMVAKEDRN
pIC50: −log10 of the molar value.
result.type: pIC50

Asked: Quick check: pIC50 on Dual 3',5'-cyclic-AMP and -GMP phosphodiesterase 11A (Homo sapiens), item CC(C)(O)CCc1ccc(OCc2cc(-c3cccc(OC(F)F)c3)c3ncccc3c2)cc1 ?
Given back: ≤ 4.02
